# System: HCV RNA replicon in cell line ET (luc-ubi-neo/ET), human Huh7 hepatoma
# Assay method text: Replicon luciferase assay, Example 26
# Assay type: cell-based
# Test conditions: Hepatitis C virus, Huh-7, assay of Example 26, 72 hr, read-out: Inhibition, Replicon, EC50 value
pEC50: −log10 of the molar value.
Listed below: pEC50 values for each entry.
Measured endpoint: pEC50

{"Compound": "C=C[C@@H]1C[C@]1(NC(=O)[C@@H]1CC(OC(=O)N2Cc3cccc(F)c3C2)CN1C(=O)[C@@H](C)Nc1ccnc(Cl)n1)C(=O)NS(=O)(=O)C1CC1 (some centres unmarked) [Compound I-49]", "Measured endpoint": "pEC50", "Reported": "5.00 to 6.00"}
{"Compound": "CC(C)(C)OC(=O)N[C@H]1CCCN(S(=O)(=O)c2ccccc2[N+](=O)[O-])C/C=C\\[C@@H]2C[C@@]2(C(=O)NS(=O)(=O)C2CC2)NC(=O)[C@@H]2CC(OC(=O)N3Cc4cccc(F)c4C3)CN2C1=O (some centres unmarked) [Compound I-54]", "Measured endpoint": "pEC50", "Reported": "6.00 to 7.00"}
{"Compound": "C=CC(=O)N1CCC/C=C\\[C@@H]2C[C@@]2(C(=O)NS(=O)(=O)C2CC2)NC(=O)[C@@H]2CC(OC(=O)N3Cc4cccc(F)c4C3)CN2C(=O)[C@@H](NC(=O)OC(C)(C)C)C1 (some centres unmarked) [Compound I-35]", "Measured endpoint": "pEC50", "Reported": "6.00 to 7.00"}
{"Compound": "C=C[C@@H]1C[C@]1(NC(=O)[C@@H]1CC(OC(=O)N2Cc3cccc(F)c3C2)CN1C(=O)[C@H](CC(=O)C=C(C)C)NC(=O)OC(C)(C)C)C(=O)NS(=O)(=O)C1CC1 (some centres unmarked) [Compound I-32]", "Measured endpoint": "pEC50", "Reported": "> 8.00"}
{"Compound": "C=CC(=O)N(C)CC(NC(=O)C12CCC(C(=O)OC)(CC1)CC2)C(=O)N1CC(OC(=O)N2Cc3cccc(F)c3C2)C[C@H]1C(=O)N[C@]1(C(=O)NS(=O)(=O)C2CC2)C[C@H]1C=C (some centres unmarked) [Compound I-52]", "Measured endpoint": "pEC50", "Reported": "5.00 to 6.00"}
